# Test system: upland rice (Oryza sp., var.Cocodrie, RICE)
# testMethodNotes: Greenhouse herbicide screen, post-emerge application, crop damage rating
# Type: in vivo
# condition: POST emergent, 63 g ai/ha, 14 days after application, scale 0-100
quantityMeasured: crop damage rating RICE
Form rule: numeric answer, no unit written next to it.

Cn1c(C(F)(F)F)cc(=O)n(-c2cc(C(=O)NN(Cc3ccccc3)Cc3ccccc3)c(Cl)cc2F)c1=O | 0
CC(=O)OC(=NN1C(C)CCCC1C)c1cc(-n2c(=O)cc(C(F)(F)F)n(C)c2=O)c(F)cc1Cl (stereo not shown) | 0
Cn1c(C(F)(F)F)cc(=O)n(-c2cc(C(=O)NN3CCCC3)c(Cl)cc2F)c1=O | 65
CC(=O)OC(=NN(C)C)c1cc(-n2c(=O)cc(C(F)(F)F)n(C)c2=O)ccc1Cl | 10
CN1CCN(NC(=O)c2cc(-n3c(=O)cc(C(F)(F)F)n(C)c3=S)c(F)cc2Cl)CC1 | 0

q: Fill blank: measured crop damage rating RICE of the molecule CC1CCCC(C)N1NC(=O)c1cc(-n2c(=O)cc(C(F)(F)F)n(C)c2=S)c(F)cc1Cl (stereo not shown) is ____.
a: 0

q: Next up: "CC(=NN=C(OS(C)(=O)=O)c1cc(-n2c(=O)cc(C(F)(F)F)n(C)c2=O)c(F)cc1Cl)C(C)(C)C"
a: 10

q: Also "C#CCOC(=NN=C(C(C)(C)C)C(C)(C)C)c1cc(-n2c(=O)cc(C(F)(F)F)n(C)c2=O)c(F)cc1Cl" , if possible.
a: 10

###

# Test system: upland rice (Oryza sp., var.Cocodrie, RICE)
# testMethodNotes: Greenhouse herbicide screen, pre-emerge application, crop damage rating
# Format: in vivo
# condition: PRE emergent, 250 g ai/ha, 14 days after application, rating scale 0-100
# reported crop damage rating RICE; entries follow
No unit in the answer, please; the number alone is enough.

Answered examples (2):
CC(=O)OC(=NN(C)C)c1cc(-n2c(=O)cc(C(F)(F)F)n(C)c2=O)ccc1Cl [Compound 4-4] | 55
C#CCOC(=NN=C(C(C)(C)C)C(C)(C)C)c1cc(-n2c(=O)cc(C(F)(F)F)n(C)c2=O)c(F)cc1Cl [Compound 5-7] | 0

q: Which crop damage rating RICE is listed for CC1CCCC(C)N1N=C(OC(=O)C(Cl)Cl)c1cc(-n2c(=O)cc(C(F)(F)F)n(C)c2=O)c(F)cc1Cl (stereo not shown) [Compound 4-8] ?
a: 0

q: How about this compound: CN(C)NC(=O)c1cc(-n2c(=O)cc(C(F)(F)F)n(C)c2=O)ccc1Cl [Compound 1-4]
a: 8

###

phytotoxicity rating AMBEL reference
# Tested on: common ragweed (Ambrosia artemisiifolia L., AMBEL)
# testMethodNotes: Greenhouse herbicide screen, post-emerge application, phytotoxicity rating
# Type: in vivo
# condition: POST emergent, 63 g ai/ha, 14 days after application, scale 0-100

Cn1c(C(F)(F)F)cc(=O)n(-c2cc(C(=O)NNC(=O)OC(C)(C)C)c(Cl)cc2F)c1=O [Compound 1-24] | 100

q: Sample CN(C)NC(=O)c1cc(-n2c(=O)cc(C(F)(F)F)n(C)c2=O)ccc1Cl [Compound 1-4] — what was its phytotoxicity rating AMBEL?
a: 80

q: What do you have for CC(=NN=C(OS(C)(=O)=O)c1cc(-n2c(=O)cc(C(F)(F)F)n(C)c2=O)c(F)cc1Cl)C(C)(C)C [Compound 5-3] ?
a: 90

q: Would you kindly repeat that for Cn1c(C(F)(F)F)cc(=O)n(-c2cc(C(=O)NN=C(c3ccccc3)c3ccccc3)c(Cl)cc2F)c1=O [Compound 6-15] ?
a: 80
